The measurements presented in this section are drawn from patent US20220177581A1.

TESTED_TARGET: T1, CD22 (antigen in the Biacore assay) (human, UniProt P20273 20-687, limits assumed)
T1 sequence: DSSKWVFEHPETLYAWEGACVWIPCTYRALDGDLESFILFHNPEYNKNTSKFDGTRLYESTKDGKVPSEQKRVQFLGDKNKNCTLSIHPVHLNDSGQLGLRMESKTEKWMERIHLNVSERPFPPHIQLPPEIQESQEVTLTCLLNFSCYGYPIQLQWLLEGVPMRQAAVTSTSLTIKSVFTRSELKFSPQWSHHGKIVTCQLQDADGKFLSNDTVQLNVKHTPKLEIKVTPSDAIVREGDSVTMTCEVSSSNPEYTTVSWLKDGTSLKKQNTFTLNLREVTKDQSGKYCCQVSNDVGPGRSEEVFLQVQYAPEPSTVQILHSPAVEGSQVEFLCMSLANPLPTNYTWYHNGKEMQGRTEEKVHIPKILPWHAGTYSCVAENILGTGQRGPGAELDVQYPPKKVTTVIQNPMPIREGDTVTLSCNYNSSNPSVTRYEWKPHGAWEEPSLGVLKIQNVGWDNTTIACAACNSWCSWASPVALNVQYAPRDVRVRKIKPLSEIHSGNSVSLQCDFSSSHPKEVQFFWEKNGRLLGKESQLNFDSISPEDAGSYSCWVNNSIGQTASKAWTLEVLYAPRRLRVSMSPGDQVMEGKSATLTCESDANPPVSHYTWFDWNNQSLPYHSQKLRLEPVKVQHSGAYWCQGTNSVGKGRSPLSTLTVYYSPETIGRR
TEST_PROTOCOL: SPR (Biacore) at 37° C
PROPERTY_LABEL: kon (M⁻¹ s⁻¹)
Field format: number, assumed M⁻¹ s⁻¹, no unit text.

Use the examples below as a reference point.
BINDER	PROPERTY_LABEL	U	VALUE_OBSERVED
humanized LL2 L1 + H6 (antibody, V domains shown, Human IgG1 frameworks; also called H6L1) VH: QVQLQQSGAEVKKPGASVKVSCKASGYTFTSYWLHWIRQAPGQRLEWMGYINPRNDYTEYNQNFKDRVTITRDTSASTAYMELSSLRSEDTAVYYCARRDITTFYWGQGTTLTVSS VL: DIVLTQSPDSLAVSAGERVTMNCKSSQSVLYSANHKNYLAWYQQKPGQPPKLLIYWASTRESGVPDRFSGSGSGTDFTLTISSVQAEDVAIYYCHQYLSSWTFGGGTKLEIK	kon	M⁻¹ s⁻¹	171000
humanized LL2 L1 + H12 (antibody, V domains shown, Human IgG1 frameworks; also called H12L1; VL1-VH12) VH: QVQLQQSGAEVKKPGASVKMSCKASGYTFTSYWLHWVRQAPGQRLEWMGYINPRNDYTEYNQNFKDRVTITADTSASTAYMELSSLRSEDTAVYYCARRDITTFYWGQGTTLTVSS VL: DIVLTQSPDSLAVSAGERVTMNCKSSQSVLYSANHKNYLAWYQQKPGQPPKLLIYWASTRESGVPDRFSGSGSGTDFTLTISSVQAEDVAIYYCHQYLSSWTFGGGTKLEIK	kon	M⁻¹ s⁻¹	287000
humanized LL2 L1 + H10 (antibody, V domains shown, Human IgG1 frameworks; also called H10L1) VH: QVQLVQSGAEVKKPGASVKVSCKASGYTFTSYWLHWVRQAPGQRLEWMGYINPRNDYTEYNQNFKDRVTLTADKSASTAYMELSSLRSEDTAVYYCARRDITTFYWGQGTTLTVSS VL: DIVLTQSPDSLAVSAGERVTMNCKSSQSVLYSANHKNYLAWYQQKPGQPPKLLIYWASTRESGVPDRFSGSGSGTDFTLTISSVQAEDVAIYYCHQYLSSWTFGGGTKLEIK	kon	M⁻¹ s⁻¹	176000

Query: Fill blank: measured kon of the binder humanized LL2 L2 + H1 (antibody, V domains shown, Human IgG1 frameworks; also called H1L2) VH: QVQLVESGAEVKKPGASVKMSCKASGYTFTSYWLHWIRQAPGQRLEWIGYINPRNDYTKYSQKFQGRATITADKSASTAYMELSSLRSEDTAVYYCARRDITTFYWGQGTTLTVSS VL: DIVLTQSPDSLAVSLGERVTMNCKSSQSVLYSANHKNYLAWYQQKPGQSPKLLIYWASTRESGVPDRFSGSGSGTDFTLTISSVQAEDVAIYYCHQYLSSWTFGGGTKLEIK is ____.
Result: 5.43e+06
